Values from ChEMBL document CHEMBL3885861

# Species: Rattus norvegicus
# procedure details: Open TG-GATES - Regimen: Single
# Type: toxicity, organism-based, Sprague-Dawley
# Parameters: regimen Single, gender Male, age 6 weeks
# measurement conditions: in vivo, po, 0 mg/kg, 3 h, tissue Kidney, route gavage, dose level Control
readout label: KIDNEY_L

Some solved entries appear below for comparison.
> print(dat)
                               compound  measured.result
1  ClC(Cl)(Cl)Cl [CARBON TETRACHLORIDE]            0.9 g
2              O=NN(CCCl)C(=O)NC1CCCCC1            0.9 g

Task item: Using the record for CN(C)CCC=C1c2ccccc2COc2ccccc21 [DOXEPIN] , report its KIDNEY_L.
Reply: 0.9 g

Task item: # repeat for CC(C)N(CCC(C(N)=O)(c1ccccc1)c1ccccn1)C(C)C (stereo not given) [DISOPYRAMIDE]
Reply: 0.9 g

Task item: # repeat for `CC[C@H]1[C@@H]2C[C@H]3[C@@H]4N(C)c5ccccc5[C@]45C[C@@H]([C@@H]2[C@H]5O)N3[C@@H]1O`
Reply: 0.9 g

Task item: # repeat for `CN(C)C(=N)N=C(N)N`
Reply: 0.9 g

Task item: # repeat for OCCOCCN1CCN(C(c2ccccc2)c2ccc(Cl)cc2)CC1 (stereo not given) [HYDROXYZINE]
Reply: 0.9 g

Task item: # repeat for `CCc1oc2ccccc2c1C(=O)c1cc(Br)c(O)c(Br)c1`
Reply: 0.9 g

Task item: # repeat for `CCC1(c2ccccc2)C(=O)NC(=O)NC1=O`
Reply: 1.1 g

Task item: # repeat for CC1=C(CC(=O)O)c2cc(F)ccc2/C1=C\c1ccc([S+](C)[O-])cc1 (stereo not given)
Reply: 0.8 g

====

# Species on record: Rattus norvegicus
# procedure details: Open TG-GATES - Regimen: Daily Repeat
# Assay type: toxicity, organism-based, Sprague-Dawley
# Set-up: regimen Daily Repeat, gender Male, age 6 weeks
# measurement conditions: in vivo, po, 0 mg/kg, 72 h, tissue Plasma, route gavage, dose level Control, time 3 day
Recorded TG values for a group of molecules are listed next.
Write the answer as a number in mg/dL, unit excluded.

> print(dat)
                                   molecule  endpoint.unit  measured.result
1  CC(C)N(CCC(C(N)=O)(c1ccccc1)c1ccccn1)C(C)C (stereo unspecified) [DISOPYRAMIDE]          mg/dL               88

Task item: Using the record for ClC(Cl)(Cl)Cl [CARBON TETRACHLORIDE] , report its TG.
Reply: 86.6

Task item: # repeat for CN(C)CCC=C1c2ccccc2COc2ccccc21 [DOXEPIN]
Reply: 91.2

Task item: # repeat for OCCOCCN1CCN(C(c2ccccc2)c2ccc(Cl)cc2)CC1 (stereo unspecified) [HYDROXYZINE]
Reply: 90

Task item: # repeat for CCCCc1oc2ccccc2c1C(=O)c1cc(I)c(OCCN(CC)CC)c(I)c1 [AMIODARONE]
Reply: 113.2

Task item: # repeat for CC1=C(CC(=O)O)c2cc(F)ccc2/C1=C\c1ccc([S+](C)[O-])cc1 (stereo unspecified)
Reply: 111.6

Task item: # repeat for CCc1oc2ccccc2c1C(=O)c1cc(Br)c(O)c(Br)c1 [BENZBROMARONE]
Reply: 106

Task item: # repeat for CCC1(c2ccccc2)C(=O)NC(=O)NC1=O [PHENOBARBITAL]
Reply: 142.6
